- measured-on: Thyroid hormone receptor alpha (Homo sapiens)
- experiment: TRalpha-Binding Assay.
pIC50: −log10 of the molar value.
observable: pIC50

Illustrative cases are given below, each with its answer.
O=C(O)Cc1cc(Br)c(Oc2ccc(O)c(Oc3ccccc3O)c2)c(Br)c1; 5.83
COc1ccccc1CCNC(=O)c1cc(Oc2c(Br)cc(CC(=O)O)cc2Br)ccc1O; 7.02
O=C(O)Cc1cc(Br)c(Oc2ccc(O)c(C(=O)NCCc3ccccn3)c2)c(Br)c1; 5.95

P: O=C(O)Cc1cc(Br)c(Oc2ccc(O)c(Oc3cccc(-c4ccccc4)c3)c2)c(Br)c1
Q: O=C(O)Cc1cc(Br)c(Oc2ccc(O)c(C(=O)NCCCc3ccccc3)c2)c(Br)c1
Task: Kindly identify the item with the lower pIC50 figure among these two: P and Q Could you answer with the label of the item you picked?
Result: P

* * *

- measured-on: Thyroid hormone receptor alpha (Homo sapiens)
- experiment: TRalpha-Binding Assay.
- measurement-context: pH 7; 4 °C
observable: IC50 (nM)

Illustrative cases are given below, each with its answer.
O=C(O)Cc1cc(Cl)c(Oc2ccc(O)c(-c3ccncc3)c2)c(Cl)c1; 145
O=C(O)Cc1cc(Cl)c(Oc2ccc(O)c(-c3ccc(O)cc3)c2)c(Cl)c1; 847
O=C(O)Cc1cc(Cl)c(Oc2ccc(O)c(-c3cccnc3)c2)c(Cl)c1; 819
O=C(O)Cc1cc(Cl)c(Oc2ccc(O)c(C3CCCCC3)c2)c(Cl)c1; 258
O=C(O)Cc1cc(Cl)c(Oc2ccc(O)c(-c3nccs3)c2)c(Cl)c1; 558

1: O=C(O)Cc1cc(Cl)c(Oc2ccc(O)c(-c3cncnc3)c2)c(Cl)c1
2: CCc1cccc(-c2cc(Oc3c(Cl)cc(CC(=O)O)cc3Cl)ccc2O)c1
Task: Recorded IC50 values differ for 1 and 2 ; which one is higher? Could you answer with the label of the item you picked?
Result: 1

a: O=C(O)Cc1cc(Cl)c(Oc2ccc(O)c(-c3ccc(C(F)(F)F)cc3)c2)c(Cl)c1
b: O=C(O)Cc1cc(Cl)c(Oc2ccc(O)c(-c3cccc(C(F)(F)F)c3)c2)c(Cl)c1
Task: Kindly identify the item with the lower IC50 figure among these two: a and b Could you answer with the label of the item you picked?
Result: b
(b: 40 nM, a: 515 nM)

* * *

- measured-on: Thyroid hormone receptor alpha (Homo sapiens, UniProt P10827)
- Sequence (P10827 whole entry): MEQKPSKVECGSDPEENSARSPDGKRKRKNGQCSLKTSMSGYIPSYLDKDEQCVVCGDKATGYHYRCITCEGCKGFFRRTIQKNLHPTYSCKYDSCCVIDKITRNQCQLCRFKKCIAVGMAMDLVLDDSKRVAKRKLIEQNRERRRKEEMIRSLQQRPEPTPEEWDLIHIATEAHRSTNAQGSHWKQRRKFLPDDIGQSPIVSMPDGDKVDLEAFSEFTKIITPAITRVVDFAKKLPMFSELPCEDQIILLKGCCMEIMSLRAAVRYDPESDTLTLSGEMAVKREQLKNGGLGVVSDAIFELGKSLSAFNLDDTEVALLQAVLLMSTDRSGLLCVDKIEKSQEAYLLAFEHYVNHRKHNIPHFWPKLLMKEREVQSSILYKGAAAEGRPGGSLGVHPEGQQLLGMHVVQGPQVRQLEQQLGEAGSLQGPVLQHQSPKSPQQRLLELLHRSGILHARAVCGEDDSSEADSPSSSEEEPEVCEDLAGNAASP
- experiment: TRalpha-Binding Assay.
- measurement-context: pH 7; 4 °C
observable: IC50 (nM)

1: O=C(O)Cc1cc(Cl)c(Oc2ccc(O)c(-c3cccc(OC(F)(F)F)c3)c2)c(Cl)c1
2: O=C(O)Cc1cc(Cl)c(Oc2ccc(O)c(-c3ccccc3O)c2)c(Cl)c1
3: O=C(O)Cc1cc(Cl)c(Oc2ccc(O)c(-c3ccccc3C(F)(F)F)c2)c(Cl)c1
Task: Parameters: sort_field (IC50), sort_dir (desc). # respond with the labels, arranged in the requested order
Result: 2, 1, 3
(2: 1050 nM, 1: 100 nM, 3: 18 nM)

I: O=C(O)Cc1cc(Cl)c(Oc2ccc(O)c(-c3cccc(OC(F)F)c3)c2)c(Cl)c1
II: O=C(O)Cc1cc(Cl)c(Oc2ccc(O)c(-c3cccc(-c4ccccc4)c3)c2)c(Cl)c1
Task: Recorded IC50 values differ for I and II ; which one is higher? Could you answer with the label of the item you picked?
Result: II
